Tested on: HS 578T breast
Test Details: NCI-60 one-dose screen, 48 h (100 = growth as untreated, 0 = no growth, -100 = all killed)
Test Settings: 10 µM unless noted
About 83,000 compounds went through this panel and 20% of them were active in at least one assay; those are over-represented in the sample as a whole.
Readout Kind: growth (%)
The reply should be a number in %, with the unit left off.

[Q] Item under review: C=CCn1c(SCC(=O)Nc2cccc(C(=O)/C=C/c3ccccc3)c2)nc2ccccc2c1=O . Reported growth?
[A] 99.2

[Q] Item under review: O=C(C[n+]1ccnc2ccccc21)c1ccc(O)c(O)c1 . Reported growth?
[A] 94.4

[Q] Item under review: Cc1cc(NS(=O)(=O)c2ccc(-c3cnc(C4CC4)o3)cc2)ccc1I . Reported growth?
[A] 40

[Q] Item under review: O=S(=O)(Nc1ccc(-n2cnc3cc(-c4ccc(O)cc4)ccc32)cc1)C1CC1 . Reported growth?
[A] 95

[Q] Item under review: O=C(NNc1nc2cc(F)c(F)cc2n2cccc12)c1ccncn1 . Reported growth?
[A] 48.2

[Q] Item under review: Cc1ccc(-c2nnc3sc(C4=Cc5ccccc5OC=C4)nn23)cc1 . Reported growth?
[A] 112

[Q] Item under review: Cc1ccc(-c2cc3nc(C(Cl)Cl)nc(-c4ccccc4)n3n2)cc1 . Reported growth?
[A] 109

[Q] Item under review: CN1C(=O)/C(=C/C=C/c2ccco2)SC1=S . Reported growth?
[A] 98.1

[Q] Item under review: CS(=O)c1nccc(-c2c(-c3ccc(F)c(OCCc4ccc(F)cc4)c3)nc3sccn23)n1 (stereo not given) . Reported growth?
[A] 88.7

[Q] Item under review: O=C(COc1ccc(C2SCC(=O)N2c2ccc(F)cc2)cc1)c1ccccc1 (stereo not given) . Reported growth?
[A] 96.7

* * *

Test system: OVCAR-3 ovarian
Test Details: NCI-60 one-dose screen, 48 h
Test Settings: 10 µM unless noted
This is part of a sample that, as a whole, favours compounds with a hit. Of some 83,000 tested, about 20% had one in any assay. Calls of active or inactive are those of the source. The calls were made as follows: active = growth percent below 10; inactive = the rest.
Parameter call: string, one of T = active, F = inactive

[Q] Entry COc1ccc(CN2C(=O)/C(=C/c3nc(CO)cs3)SC2=S)cc1 : call = ?
[A] F

[Q] Entry COc1cc(C(=O)C[n+]2ccc3ccccc3c2)cc(OC)c1OC : call = ?
[A] F

[Q] Entry CC(C)C(=O)Nc1ccc(-c2nc(-c3cccc(O)c3)c(-c3ccnc(Br)c3)[nH]2)cc1 : call = ?
[A] F

[Q] Entry CCOP(=O)(OCC)OC[C@]12CCC(C)(C)C[C@H]1C1=CC[C@@H]3[C@@]4(C)C/C(=C\c5cccnc5)[C@H](OP(=O)(OCC)OCC)C(C)(C)[C@@H]4CC[C@@]3(C)[C@]1(C)CC2 : call = ?
[A] F

[Q] Entry O=C(C[n+]1ccnc2ccccc21)c1ccc(O)c(O)c1 : call = ?
[A] F

[Q] Entry IP(CCCSc1n(Cc2ccc3ccccc3c2)c(-c2ccccc2)c(-c2ccccc2)[n+]1Cc1ccc2ccccc2c1)(c1ccccc1)(c1ccccc1)c1ccccc1 : call = ?
[A] T

[Q] Entry O=C(O)c1ccc(-n2cc(CNc3ccc(Cl)cc3)c(-c3ccc(F)cc3)n2)cc1 : call = ?
[A] F

[Q] Entry COc1ccc(-c2oc3cc(O)cc(O)c3c(=O)c2OC)cc1O : call = ?
[A] T

[Q] Entry O=C(NNc1nc2cc(F)c(F)cc2n2cccc12)c1ncccn1 : call = ?
[A] F

[Q] Entry Oc1ccc(CSc2nnc(-c3ccc(Br)cc3)n2-c2ccccc2)c2cccnc12 : call = ?
[A] F

[Q] Entry CCCCCCNC(=O)Oc1ccc(/C(=C(/C)c2ccc(OC)cc2)c2ccc(OCCN3CCCC3)cc2)cc1 : call = ?
[A] F

[Q] Entry COc1cc(/C=C/C(=O)c2ccc(NC(=O)COc3cccc4cccnc34)cc2)cc(OC)c1OC : call = ?
[A] F

[Q] Entry CCNCc1c(-c2cccc(OC(F)(F)F)c2)[nH]c2ccc(N3CCCC3)cc2c1=O : call = ?
[A] T

[Q] Entry Oc1ccc(CSc2nnc(-c3ccccc3)n2-c2ccccc2)c2cccnc12 : call = ?
[A] T

[Q] Entry O=C(CSc1nnc(-c2ccc(Cl)cc2)n1-c1ccccc1)Nc1ccc(F)cc1 : call = ?
[A] F

[Q] Entry N#C/C(=C\c1ccc(Cl)cc1Cl)C(N)=O : call = ?
[A] F

[Q] Entry Fc1ccc(-c2cc3nc(C(Cl)Cl)nc(-c4cccs4)n3n2)cc1 : call = ?
[A] T

[Q] Entry O=C(Nc1cccc(Cl)c1)Nc1nc2ccc([N+](=O)[O-])cc2s1 : call = ?
[A] T

[Q] Entry O=C(CN1C(=O)CSC1=O)Nc1ccc(C(=O)/C=C/c2cc3ccccc3nc2Cl)cc1 : call = ?
[A] F

[Q] Entry COc1ccc(N)cc1C(=O)Nc1cccc(-c2cc(=O)c3c(OC)c(OC)c(OC)cc3o2)c1 : call = ?
[A] F

[Q] Entry CC1=C2C(=C[C@@](C)(COS(N)(=O)=O)[C@@H]2O)C(=O)[C@](C)(O)C12CC2 : call = ?
[A] F

[Q] Entry CCCC(=O)NC(c1cccnc1)c1ccc2c(C)ccnc2c1O (centres undefined) : call = ?
[A] F

[Q] Entry CC(=O)NC(C)(C)C(=O)N1CCC[C@H]1C(=O)NC(C)(C)C(=O)N[C@@H](C)C(=O)NC(C)(C)C(=O)N[C@@H](C)C(=O)N[C@@H](CCC(N)=O)C(=O)NC(C)(C)C(=O)N[C@H](C(=O)NC(C)(C)C(=O)NCC(=O)N[C@@H](CC(C)C)C(=O)NC(C)(C)C(=O)N1CCC[C@H]1C(=O)N[C@H](C(=O)NC(C)(C)C(=O)NC(C)(C)C(=O)N[C@@H](CCC(N)=O)C(=O)N[C@@H](CCC(N)=O)C(=O)N[C@H](CO)Cc1ccccc1)C(C)C)C(C)C : call = ?
[A] F

[Q] Entry COc1ccc(Cn2cc3c(c2-c2cc(OC)c(OC)c(OC)c2)CCCc2cnoc2-3)cc1N : call = ?
[A] T

[Q] Entry N#Cc1c(-c2cccs2)cc(-c2cnccn2)nc1SCC(=O)NNC(=S)Nc1ccc(F)cc1 : call = ?
[A] F

[Q] Entry O=C1CC2(CCOCC2)Oc2ncccc21 : call = ?
[A] T

[Q] Entry CCOC(=O)c1c(NC(=O)c2ccc(F)cc2F)sc2c1CCC(=O)C2 : call = ?
[A] F

[Q] Entry C=C(C)[C@@H]1CC[C@]2(C(=O)NCCCN(CCC#N)CCC#N)CC[C@]3(C)[C@H](CC[C@@H]4[C@@]5(C)CCC(=O)C(C)(C)[C@@H]5CC[C@]43C)[C@@H]12 : call = ?
[A] F

[Q] Entry O=S(=O)(Nc1ccc(C2CC2)cc1)c1ccc(-c2cnc(C3CC3)o2)cc1 : call = ?
[A] F

[Q] Entry CC(c1ccccc1)N1C(=O)/C(=C/c2csc(C#N)n2)SC1=S (centres undefined) : call = ?
[A] F

[Q] Entry COc1ccc(Oc2ccc(C3CC(c4cc(OC)c(OC)c(OC)c4)=NN3C(C)=O)cc2)cc1 (centres undefined) : call = ?
[A] F

[Q] Entry c1ccc(-c2n(Cc3ccc4ccccc4c3)c3c4ccccc4c4ccccc4c3[n+]2Cc2ccc3ccccc3c2)cc1 : call = ?
[A] T

[Q] Entry C#C[C@]1(O)CC[C@H]2[C@@H]3CC=C4c5sc(Nc6cc(OC)ccc6OC)nc5CC[C@]4(C)[C@H]3CC[C@@]21C : call = ?
[A] F

[Q] Entry O=C(CSc1ccc(-c2nc3ccccc3[nH]2)cn1)N1CCN(c2ccccc2F)CC1 : call = ?
[A] F

* * *

Would you mind telling me the reported growth of each entry?
Tested on: NCI-H322M lung
Test Details: NCI-60 one-dose screen, 48 h (100 = growth as untreated, 0 = no growth, -100 = all killed)
Test Settings: 10 µM unless noted
The panel holds about 83,000 compounds, 20% with a hit somewhere; the sample as a whole holds those more often.
The reply should be a number in %, with the unit left off.

[Q] Item under review: CCOC(=O)/C=c1\sc2n(c1=O)C1C(NN=2)N(CC)C(=O)N1CC (centres undefined) . Reported growth?
[A] 78.9

[Q] Item under review: NC(=O)N1N=C(c2cc3ccccc3oc2=O)CC1c1cn(-c2ccccc2)nc1-c1ccc(Cl)cc1 (centres undefined) . Reported growth?
[A] 52

[Q] Item under review: Cc1cc(Cl)cc(NS(=O)(=O)c2ccc(-c3cnc(C4CC4)o3)cc2)c1 . Reported growth?
[A] 46.7

[Q] Item under review: O=C1/C(=C/c2ccc([N+](=O)[O-])cc2)SC(=Nc2ccccc2)N1Nc1ccccc1 . Reported growth?
[A] 60.9

* * *

System: TK-10 renal
Test Details: NCI-60 one-dose screen, 48 h (100 = growth as untreated, 0 = no growth, -100 = all killed)
Test Settings: 10 µM unless noted
Protocol: Growth inhibition of the TK-10 human tumor cell line is measured as a screen for anti-cancer activity. Cells are grown in 96 well plates and exposed to the test compound for 48 hours. Compounds are tested at a single concentration, which is 10^-5 M for most compounds. The reported endpoint is percent growth (GI% or GIPRCNT), where numbers from 0 - 100% represent growth inhibition, and numbers from -100% - 0 represent cell death. For example, a value of 40 represents 60% growth inhibition. […]
This is part of a sample that, as a whole, favours compounds with a hit. Of some 83,000 tested, about 20% had one in any assay. Active and inactive are the calls of the source. How the source made its calls: active means growth percent below 10; inactive means the rest.
Readout Kind: growth

[Q] Item under review: CC(=O)Nc1nc2c(s1)C1=CC[C@H]3[C@@H]4CC[C@H](C(C)=O)[C@@]4(C)CC[C@@H]3[C@@]1(C)CC2 . Reported growth?
[A] 124% (inactive)

[Q] Item under review: CC1(C)CC[C@]2(C(=O)O)CC[C@]3(C)C(=CCC4[C@@]5(C)C[C@@H](O)[C@@H]6OC(c7cccc([N+](=O)[O-])c7)OC[C@@]6(C)C5CC[C@]43C)C2C1 (stereo partly drawn) . Reported growth?
[A] 71.9% (inactive)

[Q] Item under review: N#Cc1c(-c2cccs2)cc(-c2cnccn2)nc1SCC(=O)NNC(=S)Nc1ccc(F)cc1 . Reported growth?
[A] 108% (inactive)

[Q] Item under review: COc1cc(-c2nc(SCc3ccc(C)cc3)[nH]c(=O)c2C#N)ccc1OCc1ccccc1 . Reported growth?
[A] 101% (inactive)

[Q] Item under review: CS(=O)(=O)c1ccc2c(c1)c1c(n2S(=O)(=O)c2ccc(Cl)cc2)CCCC1 . Reported growth?
[A] 65.7% (inactive)

[Q] Item under review: CCC(CC)n1c(=O)c(SC2=NC3C(NN2)N(CC)C(=O)N3CC)c(C(=O)O)c2ccccc21 (stereo not drawn) . Reported growth?
[A] 68.8% (inactive)

[Q] Item under review: COc1ccc(/C=N/Nc2nc(Nc3ccccc3)nc(Nc3ccc(S(N)(=O)=O)cc3)n2)cc1 . Reported growth?
[A] 107% (inactive)

[Q] Item under review: COc1cc2c3c(n(CCCNCC4CC4)c(=O)c2cc1OC)-c1cc2c(cc1C3=O)OCO2 . Reported growth?
[A] 72.5% (inactive)
